Listing of entries alongside the reported polymerase ribozyme fitness (log ratio).
B1: TPR 5TU (parent)
chain: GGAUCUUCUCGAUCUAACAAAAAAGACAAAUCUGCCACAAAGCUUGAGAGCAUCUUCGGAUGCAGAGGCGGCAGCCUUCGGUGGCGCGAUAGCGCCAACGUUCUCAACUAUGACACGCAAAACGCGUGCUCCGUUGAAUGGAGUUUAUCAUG

Variants of: B1
assay_remarks: polymerase ribozyme fitness, log enrichment relative to wild type (log ratio); higher = more active; in vitro selection for triplet polymerase activity
Variants at the floor of the assay were thinned out.

Prompt line: I'd like to know its polymerase ribozyme fitness (log ratio). The variant in question is G84U C99G C103U
Response line: ≤ -4.2

Prompt line: I'd like to know its polymerase ribozyme fitness (log ratio). The variant in question is A21G A22G A37C G62C G94C C103A A106C U130A
Response line: ≤ -4.2

Prompt line: I'd like to know its polymerase ribozyme fitness (log ratio). The variant in question is U53A U78C U90G C96G
Response line: ≤ -4.2

Prompt line: I'd like to know its polymerase ribozyme fitness (log ratio). The variant in question is C8A A73U G83A C93U A138C U145C
Response line: ≤ -4.2

Prompt line: I'd like to know its polymerase ribozyme fitness (log ratio). The variant in question is A17U G100A A120C A150U
Response line: ≤ -4.2

Cited source: the RNAGym collection of RNA variant scans (doi:10.1073/pnas.2313332121)
